Target: Fructose-bisphosphate aldolase (Giardia intestinalis (strain ATCC 50803 / WB clone C6))
Experiment: qHTS Assay for Inhibitors of Fructose-1,6-bisphosphate Aldolase from Giardia Lamblia; further: nearly all actives have a fitted effect of over 55% in size
Settings: purified Giardia FBPA; series mostly up to 59.6 µM
In all, about 290,000 compounds went through this assay and about 2,100 (0.72%) were called active. Roughly 4% stayed inconclusive and do not appear here. The call rests on the fitted dose curve; in most records, active means well fitted inhibition curve with a large enough effect; inconclusive means small, poorly fitted or top-dose-only effect, or effect the other way; inactive means flat fitted curve, though single readings scatter. The sample holds actives, similar compounds and a random draw of the others, so the mix is not that of the screen.
I would appreciate it if you answered using one of these outcomes: TRUE = active, FALSE = inactive

These solved cases illustrate the format of a correct answer.
                              sample_smiles                     target_or_test_system  category_label
0                C=CCc1cc(C)ccc1OCCCn1ccnc1  Fructose-bisphosphate aldolase (Giardia intestinalis (strain ATCC 50803 / WB clone C6))            TRUE
1      Cc1ccc(/C=N/NC(=O)c2cc3ccccc3cc2O)o1  Fructose-bisphosphate aldolase (Giardia intestinalis (strain ATCC 50803 / WB clone C6))           FALSE
2           Cc1c(C)c(C)c2[nH]c(=S)[nH]c2c1C  Fructose-bisphosphate aldolase (Giardia intestinalis (strain ATCC 50803 / WB clone C6))           FALSE
3     O=C(CCC(=O)n1ncc2ccccc21)NCc1ccccc1Cl  Fructose-bisphosphate aldolase (Giardia intestinalis (strain ATCC 50803 / WB clone C6))           FALSE
4  Cc1ccc(O)c(/C=N/NC(=O)COc2ccc3c(C)cc(=O)oc3c2)c1  Fructose-bisphosphate aldolase (Giardia intestinalis (strain ATCC 50803 / WB clone C6))           FALSE

Which outcome was entered for the molecule "Cc1ccc(C)c(N2CCN(S(=O)(=O)c3c(C)[nH]c(C)c3C(=O)N3CCCC3)CC2)c1" in this test?
FALSE

Which outcome was entered for the molecule "CNC(=S)N/N=C/c1ccc(N2CCOCC2)s1" in this test?
TRUE

Which outcome was entered for the molecule "O=CN1CCN(C(=O)c2ccc(Br)o2)CC1" in this test?
FALSE

Which outcome was entered for the molecule "O=C1c2ccccc2C(=O)N1CCOc1ccc(F)cc1" in this test?
FALSE

###

Biological target: Fructose-bisphosphate aldolase (Giardia intestinalis (strain ATCC 50803 / WB clone C6))
Assay: qHTS Assay for Inhibitors of Fructose-1,6-bisphosphate Aldolase from Giardia Lamblia; further: nearly all actives have a fitted effect of over 55% in size
Details: purified Giardia FBPA; series mostly up to 59.6 µM
Screen size: about 290,000 compounds; about 2,100 (0.72%) were called active. Inconclusive results (about 4%) are left out. The call rests on the fitted dose curve; in most records, active means well fitted inhibition curve with a large enough effect; inconclusive means small, poorly fitted or top-dose-only effect, or effect the other way; inactive means flat fitted curve, though single readings scatter. Many of the other results were omitted from the sample, so actives are more common in it than they were.
I would appreciate it if you answered using one of these outcomes: 1.0 (active), 0.0 (inactive)

These solved cases illustrate the format of a correct answer.
>>> print(df.to_string())
                                   molecule  category_label
0  O=C(Nc1ccccc1)/C(=C\c1ccco1)NC(=O)c1ccco1             0.0
1  CC(C)c1ccc(N(C(=O)c2ccco2)C(C(=O)NC2CCCC2)c2cccnc2)cc1 (configuration not stated)             0.0

Which outcome was entered for the molecule "CCOc1ccc(N(CC(=O)NCCc2ccc(F)cc2)S(=O)(=O)c2ccccc2)cc1" in this test?
0.0

Which outcome was entered for the molecule "CC(C)(C)c1ccc(C(=O)N2CCN(CCNC(=O)C(=O)Nc3ccc(F)cc3)CC2)cc1" in this test?
0.0

Which outcome was entered for the molecule "CN1CCN(Cc2ccc(OC(F)(F)F)cc2)CC1" in this test?
0.0

Which outcome was entered for the molecule "CCOC(=O)N1CCC(NC(=O)c2ccc3nc(N4CCOCC4)sc3c2)CC1" in this test?
0.0

Which outcome was entered for the molecule "O=C(Nc1cccc2ncccc12)C(Cl)(Cl)Cl" in this test?
0.0

###

Molecular target: Fructose-bisphosphate aldolase (Giardia intestinalis (strain ATCC 50803 / WB clone C6)) (UniProt A8B2U2)
Sequence (A8B2U2 whole entry, looked up): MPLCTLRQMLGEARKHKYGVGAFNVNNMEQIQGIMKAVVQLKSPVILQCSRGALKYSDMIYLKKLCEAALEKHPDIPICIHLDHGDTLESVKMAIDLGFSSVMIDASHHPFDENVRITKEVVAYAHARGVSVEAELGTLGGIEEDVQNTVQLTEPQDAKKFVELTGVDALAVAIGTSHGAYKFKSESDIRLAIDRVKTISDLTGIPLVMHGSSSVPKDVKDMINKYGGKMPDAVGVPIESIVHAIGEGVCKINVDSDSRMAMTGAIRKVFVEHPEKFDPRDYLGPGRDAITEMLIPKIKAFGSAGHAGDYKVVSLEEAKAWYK
Assay: qHTS Assay for Inhibitors of Fructose-1,6-bisphosphate Aldolase from Giardia Lamblia; further: nearly all actives have a fitted effect of over 55% in size
Settings: purified Giardia FBPA; series mostly up to 59.6 µM
Out of some 290,000 compounds screened, about 2,100 (0.72%) were called active. About 4% were inconclusive and are not listed. Calls follow the shape of the dose curve; as a rule, active = well fitted inhibition curve with a large enough effect; inconclusive = small, poorly fitted or top-dose-only effect, or effect the other way; inactive = flat fitted curve, though single readings scatter. The list comes from a sample in which actives are over-represented; it also holds close analogues and randomly drawn compounds.
I would appreciate it if you answered using one of these outcomes: true (1) for active, false (0) for inactive

These solved cases illustrate the format of a correct answer.
>>> print(df.to_string())
                                   compound  category_label
0            Cc1ccc(OCCCCc2c(C)n[nH]c2C)cc1        true (1)
1       CCOC(OCC)c1ccc(/C=C\c2nccc(N)n2)cc1       false (0)
2  O=C(NC(=S)Nc1ccc(S(=O)(=O)N2CCOCC2)cc1)c1ccccc1[N+](=O)[O-]       false (0)
3                 COCCCNC(=S)NC(=O)c1ccccc1       false (0)
4  COc1cc(NC(=O)NCC2CCN(Cc3ccc(C)cc3)CC2)cc(OC)c1OC       false (0)

Which outcome was entered for the compound "C=CCc1c(C)nc2cc(-c3ccccc3)[nH]n2c1=O" in this test?
false (0)

Which outcome was entered for the compound N#Cc1ccc(C2N=C(c3ccccc3)NO2)cc1 (stereo unspecified) in this test?
false (0)

Which outcome was entered for the compound "CCOC(=O)C1CCN(C(=O)COc2cccc3ccccc23)CC1" in this test?
false (0)

Which outcome was entered for the compound CCCOC1CCCN(C(=O)c2cc(COc3cncc(Cl)c3)on2)C1 (stereo unspecified) in this test?
false (0)

Which outcome was entered for the compound "C=CCNC(=S)NNC(=O)c1cc(Cl)ccc1OC" in this test?
false (0)

Which outcome was entered for the compound "Cc1ccc(OCc2n[nH]c(=S)n2-c2ccc(C)cc2)cc1" in this test?
false (0)

Which outcome was entered for the compound "O=S(=O)(Nc1ccc2nc(-c3ccco3)[nH]c2c1)c1ccccc1" in this test?
true (1)

Which outcome was entered for the compound "Cc1cc(C)nc(N/N=C/c2c(C)oc3ccccc23)n1" in this test?
false (0)

Which outcome was entered for the compound "COc1cc(NC(=O)C2=CC(c3ccc(C)cc3)=NS(=O)(=O)N2C)cc(OC)c1OC" in this test?
false (0)

Which outcome was entered for the compound "O=S(=O)(Nc1ccccc1Cl)c1cccc2nsnc12" in this test?
false (0)

Which outcome was entered for the compound "COc1ccc(Cl)cc1C(=O)NNC(=O)c1nc2nc(C)cc(C)n2n1" in this test?
true (1)

Which outcome was entered for the compound "Oc1c(C=Nc2cccc3nsnc23)ccc2ccccc12" in this test?
true (1)

Which outcome was entered for the compound "O=C(Nc1ccncc1)Nc1ccc(F)cc1" in this test?
false (0)

Which outcome was entered for the compound "CC(C)c1ccc(/C=C2\NC(=O)NC2=O)cc1" in this test?
false (0)

###

Target: Fructose-bisphosphate aldolase (Giardia intestinalis (strain ATCC 50803 / WB clone C6)) (UniProt A8B2U2)
Assay: qHTS Assay for Inhibitors of Fructose-1,6-bisphosphate Aldolase from Giardia Lamblia; further: nearly all actives have a fitted effect of over 55% in size
Details: purified Giardia FBPA; series mostly up to 59.6 µM
The campaign covered roughly 290,000 compounds. About 2,100 (0.72%) were called active. Another 4% or so got no clear call; they are omitted. Calls come from the whole dose curve; as a rule, active = well fitted inhibition curve with a large enough effect; inconclusive = small, poorly fitted or top-dose-only effect, or effect the other way; inactive = flat fitted curve, though single readings scatter. The entries come from a sample that favours actives as a whole.
I would appreciate it if you answered using one of these outcomes: active, inactive

In [3]: df
Out[3]:
                           compound  category_label
0  COc1ccccc1C(=O)CSc1cccc[n+]1[O-]        inactive

Which outcome was entered for the compound CN1C2C=C(N(C(=O)c3ccc(Cl)cc3)c3ccccc3)CC1CC2 (centres undefined) in this test?
inactive

Which outcome was entered for the compound "CCS(=O)(=O)C1=NSC2=NC(=O)/C(=C\c3ccc(OS(=O)(=O)c4ccccc4)cc3)C(=N)N21" in this test?
inactive

Which outcome was entered for the compound "COc1ccc(-n2ncc3c(SCC(=O)NNC(C)=O)ncnc32)cc1" in this test?
inactive

Which outcome was entered for the compound "COc1ccccc1/C=N/N1CCN(Cc2ccccc2Cl)CC1" in this test?
inactive

Which outcome was entered for the compound "O=C(CN1C(=O)c2ccccc2C1=O)NCc1ccc(C(=O)O)cc1" in this test?
inactive

Which outcome was entered for the compound "COc1ccccc1CN1CCN(C(=O)Cc2ccccc2)CC1" in this test?
active

Which outcome was entered for the compound "N#Cc1c(N2CCCCC2)nc(N)c2c(N)nc(SCC(=O)O)cc12" in this test?
active

Which outcome was entered for the compound "COC(=O)N1CCC2(CCCN(Cc3ccccc3OC)C2)CC1" in this test?
inactive

###

Target: Fructose-bisphosphate aldolase (Giardia intestinalis (strain ATCC 50803 / WB clone C6)) (UniProt A8B2U2)
Test: qHTS Assay for Inhibitors of Fructose-1,6-bisphosphate Aldolase from Giardia Lamblia; further: nearly all actives have a fitted effect of over 55% in size
Conditions: purified Giardia FBPA; series mostly up to 59.6 µM
Text: Assay Provider: Osnat Herzberg, University of Maryland The objective of this project is to obtain compounds that inhibit Giardia lamblia growth. […] A glyceraldehyde-3-phosphate dehydrogenase/triose phosphate isomerase/NAD/arsenate coupled assay was adapted to the 1536-well HTP format for use in the primary screen. This was done by coupling it to a diaphorase/resazurin/resorufin reaction that can be monitored by fluorescence (excitation, 544 nm; emission, 590 nm). […]
About 2,100 (0.72%) of roughly 290,000 compounds were called active. About 4% were inconclusive and are not listed. Calls come from the whole dose curve; as a rule, active = well fitted inhibition curve with a large enough effect; inconclusive = small, poorly fitted or top-dose-only effect, or effect the other way; inactive = flat fitted curve, though single readings scatter. The list comes from a sample in which actives are over-represented; it also holds close analogues and randomly drawn compounds.
I would appreciate it if you answered using one of these outcomes: 1.0 (active), 0.0 (inactive)

Which outcome was entered for the compound "CC(=O)NC1CCN(CC(=O)Nc2nccs2)CC1" in this test?
1.0

Which outcome was entered for the compound "O=C(NC(=S)N1C[C@H]2C[C@H](C1)c1cccc(=O)n1C2)c1ccc(F)cc1" in this test?
1.0
